# ΔTm per entry for Nuclear receptor ROR-gamma (Homo sapiens)
quantityMeasured: ΔTm (°C)

[
  {
    "smilesNotation": "COC(=O)c1cccc(CS(=O)(=O)Nc2ccc(-c3ccc(C(O)(C(F)(F)F)C(F)(F)F)cc3F)cc2)c1",
    "quantityMeasured": "ΔTm",
    "u": "°C",
    "measuredValue": 4
  },
  {
    "smilesNotation": "CCCCC(=O)Nc1ccc(-c2ccc(C(O)(C(F)(F)F)C(F)(F)F)cc2F)cc1",
    "quantityMeasured": "ΔTm",
    "u": "°C",
    "measuredValue": 6.3
  },
  {
    "smilesNotation": "Nc1ccccc1CC(=O)Nc1ccc(-c2ccc(C(O)(C(F)(F)F)C(F)(F)F)cc2F)cc1",
    "quantityMeasured": "ΔTm",
    "u": "°C",
    "measuredValue": 1.5
  },
  {
    "smilesNotation": "O=C(Cc1ccccc1[N+](=O)[O-])Nc1ccc(-c2ccc(C(O)(C(F)(F)F)C(F)(F)F)cc2F)cc1",
    "quantityMeasured": "ΔTm",
    "u": "°C",
    "measuredValue": 4.2
  }
]

---

# ΔTm per entry for Nuclear receptor ROR-gamma (Homo sapiens)
quantityMeasured: ΔTm (°C)

[
  {
    "smilesNotation": "O=C(CCc1ccccc1)Nc1ccc(-c2ccc(C(O)(C(F)(F)F)C(F)(F)F)cc2F)cc1",
    "u": "°C",
    "measuredValue": 5.2
  },
  {
    "smilesNotation": "CCCCCC(=O)Nc1ccc(-c2ccc(C(O)(C(F)(F)F)C(F)(F)F)cc2F)cc1",
    "u": "°C",
    "measuredValue": 5.9
  },
  {
    "smilesNotation": "CS(=O)(=O)c1ccc(CC(=O)Nc2ccc(-c3ccc(C(O)(C(F)(F)F)C(F)(F)F)cc3F)cc2)cc1",
    "u": "°C",
    "measuredValue": 7.8
  },
  {
    "smilesNotation": "O=C(CCCC1CCCCC1)Nc1ccc(-c2ccc(C(O)(C(F)(F)F)C(F)(F)F)cc2F)cc1",
    "u": "°C",
    "measuredValue": 6.5
  },
  {
    "smilesNotation": "O=C(O)c1ccc(CS(=O)(=O)Nc2ccc(-c3ccc(C(O)(C(F)(F)F)C(F)(F)F)cc3F)cc2)cc1",
    "u": "°C",
    "measuredValue": 0
  }
]

---

Target: Nuclear receptor ROR-gamma (Homo sapiens)
Assay: Inverse agonist activity at Gal4-fused RORgamma LBD (unknown origin) expressed in 293T cells measured after 24 hrs by dual-luciferase reporter gene assay
Assay type: cell-based
Here the recorded IC50 is given for each entry.

[
  {
    "smilesNotation": "O=C(CCC(F)(F)F)Nc1ccc(-c2ccc(C(O)(C(F)(F)F)C(F)(F)F)cc2F)cc1",
    "IC50 [µM]": 3.08
  },
  {
    "smilesNotation": "CNC(=O)c1ccc(CS(=O)(=O)Nc2ccc(-c3ccc(C(O)(C(F)(F)F)C(F)(F)F)cc3F)cc2)cc1",
    "IC50 [µM]": 8.05
  },
  {
    "smilesNotation": "COC(=O)c1ccccc1CS(=O)(=O)Nc1ccc(-c2ccc(C(O)(C(F)(F)F)C(F)(F)F)cc2F)cc1",
    "IC50 [µM]": 2.96
  },
  {
    "smilesNotation": "COC(=O)c1ccc(CS(=O)(=O)Nc2ccc(-c3ccc(C(O)(C(F)(F)F)C(F)(F)F)cc3F)cc2)cc1",
    "IC50 [µM]": 0.09
  },
  {
    "smilesNotation": "O=[N+]([O-])c1ccccc1CS(=O)(=O)Nc1ccc(-c2ccc(C(O)(C(F)(F)F)C(F)(F)F)cc2F)cc1",
    "IC50 [µM]": 7.66
  },
  {
    "smilesNotation": "O=C(CCc1ccccc1)Nc1ccc(-c2ccc(C(O)(C(F)(F)F)C(F)(F)F)cc2F)cc1",
    "IC50 [µM]": 1.98
  },
  {
    "smilesNotation": "CCCCCC(=O)Nc1ccc(-c2ccc(C(O)(C(F)(F)F)C(F)(F)F)cc2F)cc1",
    "IC50 [µM]": 1.83
  },
  {
    "smilesNotation": "N#Cc1ccc(CS(=O)(=O)Nc2ccc(-c3ccc(C(O)(C(F)(F)F)C(F)(F)F)cc3F)cc2)cc1",
    "IC50 [µM]": 7.55
  }
]

---

Assay: in vivo
Conditions: Sprague-Dawley, rat, po, 10 mg/kg

[
  {
    "smilesNotation": "O=C(Cc1ccccc1[N+](=O)[O-])Nc1ccc(-c2ccc(C(O)(C(F)(F)F)C(F)(F)F)cc2F)cc1",
    "bioavailability / %": 19
  },
  {
    "smilesNotation": "CS(=O)(=O)c1ccc(CC(=O)Nc2ccc(-c3ccc(C(O)(C(F)(F)F)C(F)(F)F)cc3F)cc2)cc1",
    "bioavailability / %": 52
  }
]

---

Biological target: Nuclear receptor ROR-gamma (Homo sapiens)
Sequence (P51449 whole entry): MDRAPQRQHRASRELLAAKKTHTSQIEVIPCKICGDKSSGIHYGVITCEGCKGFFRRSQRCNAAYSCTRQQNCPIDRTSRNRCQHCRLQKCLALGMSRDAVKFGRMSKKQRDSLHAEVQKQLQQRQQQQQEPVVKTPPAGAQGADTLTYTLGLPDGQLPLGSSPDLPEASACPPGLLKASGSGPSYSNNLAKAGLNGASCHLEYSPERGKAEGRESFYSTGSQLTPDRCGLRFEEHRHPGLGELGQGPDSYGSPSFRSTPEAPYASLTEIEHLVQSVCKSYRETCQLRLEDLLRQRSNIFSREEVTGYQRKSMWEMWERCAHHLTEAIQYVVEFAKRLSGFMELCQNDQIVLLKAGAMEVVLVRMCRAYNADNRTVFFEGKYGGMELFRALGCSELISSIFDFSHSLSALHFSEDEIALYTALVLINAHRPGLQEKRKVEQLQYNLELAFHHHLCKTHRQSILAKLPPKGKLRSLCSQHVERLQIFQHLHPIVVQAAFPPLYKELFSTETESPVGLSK
Test: Inverse agonist activity at Gal4-fused RORgamma LBD (unknown origin) expressed in 293T cells measured after 24 hrs by dual-luciferase reporter gene assay
Assay type: cell-based
Here the recorded IC50 is given for each entry.

[
  {
    "smilesNotation": "NC(=O)c1ccc(CS(=O)(=O)Nc2ccc(-c3ccc(C(O)(C(F)(F)F)C(F)(F)F)cc3F)cc2)cc1",
    "u": "µM",
    "IC50": 8.72
  },
  {
    "smilesNotation": "O=C(CCCC1CCCCC1)Nc1ccc(-c2ccc(C(O)(C(F)(F)F)C(F)(F)F)cc2F)cc1",
    "u": "µM",
    "IC50": 1.08
  },
  {
    "smilesNotation": "CS(=O)(=O)c1ccc(CS(=O)(=O)Nc2ccc(-c3ccc(C(O)(C(F)(F)F)C(F)(F)F)cc3F)cc2)cc1",
    "u": "µM",
    "IC50": 7.76
  },
  {
    "smilesNotation": "O=[N+]([O-])c1cccc(CS(=O)(=O)Nc2ccc(-c3ccc(C(O)(C(F)(F)F)C(F)(F)F)cc3F)cc2)c1",
    "u": "µM",
    "IC50": 1.49
  },
  {
    "smilesNotation": "CC(=O)CCCC(=O)Nc1ccc(-c2ccc(C(O)(C(F)(F)F)C(F)(F)F)cc2F)cc1",
    "u": "µM",
    "IC50": 1.52
  },
  {
    "smilesNotation": "COC(=O)c1cccc(CS(=O)(=O)Nc2ccc(-c3ccc(C(O)(C(F)(F)F)C(F)(F)F)cc3F)cc2)c1",
    "u": "µM",
    "IC50": 4.24
  }
]

---

Assay: in vivo
Settings: Sprague-Dawley, rat, iv, 2 mg/kg
Here the recorded AUC(0-t) is given for each entry.
quantityMeasured: AUC(0-t) (ng·h/mL)

[
  {
    "smilesNotation": "CS(=O)(=O)c1ccc(CC(=O)Nc2ccc(-c3ccc(C(O)(C(F)(F)F)C(F)(F)F)cc3F)cc2)cc1",
    "measuredValue": 7660
  },
  {
    "smilesNotation": "O=C(Cc1ccccc1[N+](=O)[O-])Nc1ccc(-c2ccc(C(O)(C(F)(F)F)C(F)(F)F)cc2F)cc1",
    "measuredValue": 3340
  }
]

---

Assay: in vivo
Settings: Sprague-Dawley, rat, iv, 2 mg/kg
Description: Half life in Sprague-Dawley rat at 2 mg/kg, iv

[
  {
    "smilesNotation": "O=C(Cc1ccccc1[N+](=O)[O-])Nc1ccc(-c2ccc(C(O)(C(F)(F)F)C(F)(F)F)cc2F)cc1",
    "half-life (h)": 7.67
  },
  {
    "smilesNotation": "CS(=O)(=O)c1ccc(CC(=O)Nc2ccc(-c3ccc(C(O)(C(F)(F)F)C(F)(F)F)cc3F)cc2)cc1",
    "half-life (h)": 12.7
  }
]
